B1: GNB5 (parent)
chain: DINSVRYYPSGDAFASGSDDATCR

Variants of: B1
Assay: protein stability index of a GFP-peptide fusion (GPS, HEK-293T) (PSI 1-6); higher = more stable;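 also: lentivirally expressed fusions sorted by FACS into six bins by GFP to DsRed ratio, PSI derived from sequencing read proportions per bin multiplied by bin number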
Settings: c terminus: a fixed tail appended
Lab note: compare protein stability index against 4. Equal or greater, write condition met. Smaller, write condition not met.

Some solved entries appear below for comparison.
Determine whether measured protein stability index meets or exceeds 4 for F14C condition met

Hi team, for T22Q , is the recorded protein stability index at or above 4? condition met

Given T22I , state whether its protein stability index is at least 4. condition not met

Check the entry A21T : does protein stability index equal or exceed 4? condition not met

Could you please find out whether G11E has protein stability index that meets 4 or exceeds it? condition met

Further cases:
Hi, just wondering whether I2Q shows protein stability index of 4 or higher. condition met

Is protein stability index for R24F at or above 4? condition not met

Could you please find out whether I2H has protein stability index that meets 4 or exceeds it? condition met
